Origin of measurements: patent US4507318A

Assay: Toxicity study (ED50 orally and intraperitoneally, method of Miller and Tainter)
Conditions: in vivo, ip, intraperitoneally, read-out: ED50 intraperitoneally
Procedure: The most interesting compounds of the present invention were subjected to toxicity studies. The ED50 was determined orally and intraperitoneally and calculated by the method of MILLER and TAINTER (Proc. Soc. Exper. […]. 1944, 57, 261).
measurement kind: LD50 (mg/kg)
Please reply with the bare figure in mg/kg and do not write the unit itself.

GET /value?item= CCOC(=O)[C@]1(c2ccc(OC)cc2)C[C@@H]1CN(C)C (relative stereo) &field=LD50 returns 110

GET /value?item= CCOC(=O)[C@]1(c2ccccc2)C[C@@H]1CN(C)CCc1ccccc1 (relative stereo) &field=LD50 returns 110

GET /value?item= COC(=O)[C@]1(c2ccc([N+](=O)[O-])cc2)C[C@@H]1CN(C)C (relative stereo) &field=LD50 returns 250

* * *

Test system: mice
Assay: Hot Plate, analgesic activity
Assay type: in vivo
Details: 50 mg/kg SC; mice
Consider the following compounds and their measured Hot Plate reaction time readings.
Returns: string containing the number followed by the unit.

Would you please look over these solved cases?
INSERT INTO assay_data (compound, result) VALUES
  ('CN(C)C[C@H]1C[C@]1(C(=O)OCc1ccccc1)c1ccccc1 (relative stereo) [Example 37]', '30 s'),
  ('CC(C)OC(=O)[C@]1(c2ccccc2)C[C@@H]1CN(C)C (relative stereo) [Example 36]', '40 s'),
  ('CCOC(=O)[C@]1(c2ccc(OC)cc2)C[C@@H]1CN(C)C (relative stereo) [Example 48]', '29 s');

Kindly review the next compound as well.
GET /value?item= COC(=O)[C@]1(c2ccc(N)cc2)C[C@@H]1CN(C)C (relative stereo) [Example 46] &field=Hot Plate reaction time returns 25 s
